Biological target: T1, Mcl-1, Q07820
T1 chain: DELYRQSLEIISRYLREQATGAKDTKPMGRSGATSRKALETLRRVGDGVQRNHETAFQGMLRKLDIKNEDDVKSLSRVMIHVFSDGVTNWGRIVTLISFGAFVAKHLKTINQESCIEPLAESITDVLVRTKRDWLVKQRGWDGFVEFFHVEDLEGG
Assay: peptide SPOT array, c-Myc-tagged receptor at 1 uM or 100 nM, anti-c-Myc-Cy3
READOUT KIND: SPOT signal as a fraction of Bim BH3's signal on the same receptor and array

Consider the worked cases shown below.
VLELHPGAQRDHIGCDEVYYLGEGEA [HEXDC] ... 0.04
AIDAIFLTTTLQNISEDVLAVMDNKN [CKAP5] ... 0.02
SLIEYKAAVTLQRAALKFLAKYRKKK [IQCB1] ... 0.24
ELLYGIWSNCDGLISDSFHMFFDSTA [SLC30A7] ... 0.05
KEFLALASSSLLKIGQETDKTTTRNR [NCKAP1] ... 0.12

Ask | // SPOT signal as a fraction of Bim BH3's signal on the same receptor and array lookup, key: RLRQLGVAKKFGVLLDNFKGKRIVLV [PPAT]
Reply | 0.93

Ask | Quick check: SPOT signal as a fraction of Bim BH3's signal on the same receptor and array of EQKLKQHVENLNQVAEKLEEKHSQIT [CCDC68] ?
Reply | 0.02
